The reported measurements were obtained from patent US8865901B2.

system: OVCAR-3, an ovarian tumor; experiment: Apoptosis induction against solid tumors in vitro, OVCAR-3; type: cell-based; conditions: Table 7
Value Type: EC50 (µM)
One number for each entry, in µM.

Solved entries:
- Chemical Structure: "Oc1c(Br)cc(Cl)cc1/C=N/Nc1ccc(C(F)(F)F)cn1"
  Target Under Test: "OVCAR-3, an ovarian tumor"
  Scale Unit: "µM"
  EC50: 4.2
- Chemical Structure: "O=[N+]([O-])c1cccc(/C=N/Nc2ccccn2)c1O"
  Target Under Test: "OVCAR-3, an ovarian tumor"
  Scale Unit: "µM"
  EC50: 3.8

Now let's try a different one.
Ask: So what does the record say about EC50 for Oc1c(Cl)cc(Cl)cc1/C=N/Nc1ccc(C(F)(F)F)cn1 ?
Reply: 2.7

###

tested on: TAMH cells transfected with Neo vector (Neo); test: Cytotoxicity / apoptosis induction in TAMH cells transfected with Neo vector; format: cell-based; settings: Table 8; read-out: TANH Neo
Would you kindly list EC50 for each of these compounds?
Numbers only, in µM.

Solved entries:
- Chemical Structure: "Oc1ccc(Cl)cc1Sc1cc(Cl)ccc1O"
  Scale Unit: "µM"
  Result Value: 14.7
- Chemical Structure: "Oc1ccc(Cl)cc1Cc1cc(Cl)cc(Cc2cc(Cl)ccc2O)c1O"
  Scale Unit: "µM"
  Result Value: 3.5

Now let's try a different one.
Ask: So what does the record say about EC50 for O=[N+]([O-])c1ccc(S(=O)(=O)Cc2ccccc2)c2nonc12 ?
Reply: 22.5

###

assay: Log P; settings: Table 5
Value Type: Log P
One number for each entry.

- Chemical Structure: "Cc1ccc(OC(=O)C(C)C)c(Cc2cc(C)cc(Cc3cc(C)ccc3OC(=O)C(C)C)c2O)c1"
  Log P: 8.31
- Chemical Structure: "COc1ccc(Cl)cc1Cc1cc(Cl)cc(Cc2cc(Cl)ccc2O)c1OC"
  Log P: 7.4
- Chemical Structure: "CC(=O)Oc1ccc(C)cc1Cc1cc(C)cc(Cc2cc(C)ccc2OC(C)=O)c1OC(C)=O"
  Log P: 7.45

Please give Log P, item by item, for the list that follows.
1. Cc1cccc(Cc2ccc(Cc3cccc(C)c3)c(O)c2)c1
2. CC(C)(C)c1ccc(Cc2ccc(Oc3ccccc3)cc2O)cc1

Reply:
1: 6.18; 2: 7.24

###

system: TAMH cells overexpressing Bcl-xL (TAMH-Bcl-xL, Tabx2s); experiment: Cytotoxicity / apoptosis induction in TAMH cells overexpressing Bcl-xL; type: cell-based; settings: Table 4; ratio Neo to Bcl-xL cells
# note: boundary value 4 maps to criterion not met; Neo:Bcl below it maps to criterion met

- Molecule: "COc1cc(Br)c(O)c(/C=N/NC(=O)c2ccccc2)c1 [Compound 0283]"
  Target Under Test: "TAMH cells overexpressing Bcl-xL (TAMH-Bcl-xL, Tabx2s)"
  Assigned Label: "criterion not met"
- Molecule: "CC(C)(C)c1cc(Br)c(O)c(/C=N/Nc2ccccn2)c1 [Compound 0401]"
  Target Under Test: "TAMH cells overexpressing Bcl-xL (TAMH-Bcl-xL, Tabx2s)"
  Assigned Label: "criterion not met"
- Molecule: "COc1cc(O)c(/C=N/Nc2ccccn2)cc1Br [Compound 0351]"
  Target Under Test: "TAMH cells overexpressing Bcl-xL (TAMH-Bcl-xL, Tabx2s)"
  Assigned Label: "criterion met"
- Molecule: "Oc1c(Cl)cc(Cl)cc1/C=N/Nc1ccc(C(F)(F)F)cn1 [Compound 0235]"
  Target Under Test: "TAMH cells overexpressing Bcl-xL (TAMH-Bcl-xL, Tabx2s)"
  Assigned Label: "criterion met"
- Molecule: "COc1cc(Br)cc(/C=N/Nc2ccc(C(F)(F)F)cc2)c1O [Compound 0333]"
  Target Under Test: "TAMH cells overexpressing Bcl-xL (TAMH-Bcl-xL, Tabx2s)"
  Assigned Label: "criterion not met"

Field: next molecule
Ask: For O=[N+]([O-])c1cccc(/C=N/Nc2ccccn2)c1O [Compound 0208] , is the recorded Neo:Bcl below the cut-off of 4?
Reply: criterion not met
